Data credit: patent US7271161B2

Test system: Human 2780CP cell line
Protocol Details: MTT cytotoxicity assay, cisplatin-resistant ovarian 2780CP cells, with or without BSO
Assay type: cell-based
Experimental Context: IC50 2780CP with 3 mM BSO (MTC) / IC50 A2780 without BSO
Protocol: The ovarian A2780 and 2008 cell lines are sensitive to cisplatin, while the corresponding 2780CP and 2008/C13* cell lines were selected for resistance following in vitro exposure to cisplatin. […] Procedure for Cytotoxic Evaluation. […] Cytotoxicity is determined by a standard MTT assay. […] Plates are agitated on a plate shaker for 5 min, and absorbances are measured at 570 nm in a multiwell scanning spectrophotometer. […]
Resistance Factor vs. 2780CP +3 mM BSO (MTC) of 7 or higher: fulfilled. Under 7: not fulfilled.

| Molecule | Class Label |
| --- | --- |
| [NH2][Pt]([OH])([OH])([Cl])([Cl])[NH]C1CCCCC1 [Complex 16] | not fulfilled |
| [NH2][Pt]([Cl])([Cl])[NH]C1CC1 [Complex 3] | fulfilled |
| [Cl][Pt]1([Cl])[NH][C@@H]2CCCC[C@H]2[NH]1 [Complex 2] | not fulfilled |
| [NH2][Pt]([Cl])([Cl])[NH]C1CCCCC1 [Complex 6] | not fulfilled |
| [NH2][Pt]([Cl])([Cl])[NH]C1CCCCCCC1 [Complex 8] | not fulfilled |
| [NH2][Pt]([Cl])([Cl])[NH]C1CCC1 [Complex 4] | fulfilled |
| N.N.[Cl][Pt][Cl] [Complex 1, cis-diamminedichloroplatinum, reference compound] | fulfilled |
| [NH2][Pt]([Cl])([Cl])[NH]C1CCCC1 [Complex 5] | fulfilled |
| [NH2][Pt]([Cl])([Cl])([Cl])([Cl])[NH]C1CCCCC1 [Complex 15] | not fulfilled |
| [NH2][Pt]([Cl])([Cl])[N]1CCC1 [Complex 9] | not fulfilled |
| N[C@@H]1CCCC[C@H]1N.[OH][Pt+2]([OH])([Cl])[Cl] [Complex 14] | fulfilled |
| [NH2][Pt]([Cl])([Cl])[N]1CCCC1 [Complex 10] | not fulfilled |
